# Tested on: SK-BR-3
# RECORDED CONDITIONS: 72 h
// reported EC50, CellTiter-Blue viability per item

> print(dat)
                                   molecule  test.system  recorded.measurement
1  CO[C@@]12[C@H](COC(N)=O)C3=C(C(=O)C(C)=C(N)C3=O)N1C[C@@H]1N[C@@H]12      SK-BR-3               1490 nM

Entry O=C(CCCCCCC(=O)Nc1ccccc1)NO , EC50, CellTiter-Blue viability reported as 617 nM

Entry C=CCN(/C=C1/C(=O)O[C@H](COC)[C@@]2(C)C1=C(O)C(=O)C1=C2[C@H](OC(C)=O)C[C@]2(C)C(=O)CC[C@@H]12)CC=C , EC50, CellTiter-Blue viability reported as 1320 nM

Entry CN(Cc1cnc2nc(N)nc(N)c2n1)c1ccc(C(=O)N[C@@H](CCC(=O)O)C(=O)O)cc1 [Methotrexate] , EC50, CellTiter-Blue viability reported as 23.5 nM

----------
# Tested on: HDQ-P1
# EXPERIMENT DESCRIPTION: normalised viability (% of control), CellTiter-Blue; higher = more viable cells (about 100 = DMSO control)
# RECORDED CONDITIONS: incubation time: 72 h
// reported normalised viability per item
Form entry: value (%) — number only.

Previously resolved entries follow.
MOLECULE	ENDPOINT UNIT	normalised viability
CC(C)C[C@H](NC(=O)[C@@H](COC(C)(C)C)NC(=O)[C@H](Cc1ccc(O)cc1)NC(=O)[C@H](CO)NC(=O)[C@H](Cc1c[nH]c2ccccc12)NC(=O)[C@H](Cc1cnc[nH]1)NC(=O)[C@@H]1CCC(=O)N1)C(=O)N[C@@H](CCCNC(=N)N)C(=O)N1CCC[C@H]1C(=O)NNC(N)=O [Goserelin] (3000 nM)	%	106
CC(=O)[C@]1(O)Cc2c(O)c3c(c(O)c2[C@@H](O[C@H]2C[C@H](N)[C@H](O)[C@H](C)O2)C1)C(=O)c1ccccc1C3=O [Idarubicin] (300 nM)	%	48.7
COc1c2occc2cc2ccc(=O)oc12 [Methoxsalen] (3000 nM)	%	118

Entry CC(C)(C)NC(=O)[C@H]1CC[C@H]2[C@@H]3CC[C@H]4NC(=O)C=C[C@]4(C)[C@H]3CC[C@]12C [Finasteride] (3000 nM) , normalised viability reported as 127

Entry CC(O)(CS(=O)(=O)c1ccc(F)cc1)C(=O)Nc1ccc(C#N)c(C(F)(F)F)c1 (stereo not drawn) [Bicalutamide] (3000 nM) , normalised viability reported as 96.8

Entry C=CCn1c(=O)c2cnc(Nc3ccc(N4CCN(C)CC4)cc3)nc2n1-c1cccc(C(C)(C)O)n1 [MK1775] (3000 nM) , normalised viability reported as 27.3

Entry Cn1cc(C2=C(c3cn(C4CCN(Cc5ccccn5)CC4)c4ccccc34)C(=O)NC2=O)c2ccccc21 [Enzastaurin] (3000 nM) , normalised viability reported as 89.8

Entry C=CCN(/C=C1/C(=O)O[C@H](COC)[C@@]2(C)C1=C(O)C(=O)C1=C2[C@H](OC(C)=O)C[C@]2(C)C(=O)CC[C@@H]12)CC=C [PX-866] (3000 nM) , normalised viability reported as 70.2

----------
// reported normalised viability per item
# System: HDQ-P1
# EXPERIMENT DESCRIPTION: normalised viability (% of control), CellTiter-Blue; higher = more viable cells (about 100 = DMSO control)
# RECORDED CONDITIONS: 30 nM; incubation time: 72 h
Form entry: value (%) — number only.

STRUCTURE	RECORDED MEASUREMENT
COc1ccc(S(=O)(=O)Nc2cccnc2Nc2ccc(O)cc2)cc1	102
CC1(C)CCC(c2ccc(Cl)cc2)=C(CN2CCN(c3ccc(C(=O)NS(=O)(=O)c4ccc(N[C@H](CCN5CCOCC5)CSc5ccccc5)c(S(=O)(=O)C(F)(F)F)c4)cc3)CC2)C1	79.7
COc1c2occc2cc2ccc(=O)oc12	104

Here is the next item to consider.
Entry CO[C@@H]1[C@H](N(C)C(=O)c2ccccc2)C[C@H]2O[C@]1(C)n1c3ccccc3c3c4c(c5c6ccccc6n2c5c31)C(=O)NC4 , normalised viability reported as 95.7

----------
# System: MDA-MB-453
# EXPERIMENT DESCRIPTION: normalised viability (% of control), CellTiter-Blue; higher = more viable cells (about 100 = DMSO control)
# RECORDED CONDITIONS: incubation time: 72 h
Criterion: normalised viability strictly under 80%. Met: Met. Not met: Not met.

Observe how each entry below is paired with its result.
> print(dat)
                                   molecule  category.label
1  CCNC(=O)CCC/C=C\C[C@@H]1[C@@H](/C=C/[C@@H](O)CCc2ccccc2)[C@H](O)C[C@@H]1O [Bimatoprost] (550 nM)         Not met
2  C=CCN(/C=C1/C(=O)O[C@H](COC)[C@@]2(C)C1=C(O)C(=O)C1=C2[C@H](OC(C)=O)C[C@]2(C)C(=O)CC[C@@H]12)CC=C [PX-866] (1000 nM)         Not met
3  Nc1ccn([C@@H]2O[C@H](CO)[C@@H](O)C2(F)F)c(=O)n1 [Gemcitabine] (100 nM)             Met
4  CN(Cc1cnc2nc(N)nc(N)c2n1)c1ccc(C(=O)N[C@@H](CCC(=O)O)C(=O)O)cc1 [Methotrexate] (1000 nM)         Not met
5  CC(C)(C)NC(=O)[C@H]1CC[C@H]2[C@@H]3CC[C@H]4NC(=O)C=C[C@]4(C)[C@H]3CC[C@]12C [Finasteride] (1000 nM)         Not met

Consider now this further molecule.
Lab note: normalised viability threshold 80%. Does this molecule come in strictly under it? COc1ccc(S(=O)(=O)Nc2cccnc2Nc2ccc(O)cc2)cc1 [ABT-751] (1000 nM)
Met

----------
# System: MDA-MB-231
# EXPERIMENT DESCRIPTION: normalised viability (% of control), CellTiter-Blue; higher = more viable cells (about 100 = DMSO control)
# RECORDED CONDITIONS: 100 nM; incubation time: 72 h
// reported normalised viability per item
Form entry: value (%) — number only.

Previously resolved entries follow.
COMPOUND	ENDPOINT UNIT	RECORDED MEASUREMENT
COc1ccc(S(=O)(=O)Nc2cccnc2Nc2ccc(O)cc2)cc1	%	91.4
CC(C)(C)NC(=O)[C@H]1CC[C@H]2[C@@H]3CC[C@H]4NC(=O)C=C[C@]4(C)[C@H]3CC[C@]12C [Finasteride]	%	94.2
CC1(C)CCC(c2ccc(Cl)cc2)=C(CN2CCN(c3ccc(C(=O)NS(=O)(=O)c4ccc(N[C@H](CCN5CCOCC5)CSc5ccccc5)c(S(=O)(=O)C(F)(F)F)c4)cc3)CC2)C1	%	71.9
CN(Cc1cnc2nc(N)nc(N)c2n1)c1ccc(C(=O)N[C@@H](CCC(=O)O)C(=O)O)cc1 [Methotrexate]	%	85.9
C=CCn1c(=O)c2cnc(Nc3ccc(N4CCN(C)CC4)cc3)nc2n1-c1cccc(C(C)(C)O)n1	%	88.1

Here is the next item to consider.
Entry CO[C@@]12[C@H](COC(N)=O)C3=C(C(=O)C(C)=C(N)C3=O)N1C[C@@H]1N[C@@H]12 , normalised viability reported as 107

----------
# Test system: HDQ-P1
# EXPERIMENT DESCRIPTION: normalised response (% of control), CellTox Green; higher = less cell death (100 = DMSO, 0 = benzethonium chloride kill control)
# RECORDED CONDITIONS: incubation time: 72 h
OBSERVED PROPERTY: normalised response (%)
Form entry: value (%) — number only.

Previously resolved entries follow.
COMPOUND	normalised response [%]
CC(C)(C)NC(=O)[C@H]1CC[C@H]2[C@@H]3CC[C@H]4NC(=O)C=C[C@]4(C)[C@H]3CC[C@]12C [Finasteride] (10000 nM)	102
CC(C)C[C@H](NC(=O)[C@@H](COC(C)(C)C)NC(=O)[C@H](Cc1ccc(O)cc1)NC(=O)[C@H](CO)NC(=O)[C@H](Cc1c[nH]c2ccccc12)NC(=O)[C@H](Cc1cnc[nH]1)NC(=O)[C@@H]1CCC(=O)N1)C(=O)N[C@@H](CCCNC(=N)N)C(=O)N1CCC[C@H]1C(=O)NNC(N)=O [Goserelin] (1000 nM)	107
CC1(COc2ccc3c(c2)ncn3-c2ccc3cccc(N4CCC(N)CC4)c3n2)COC1 [Crenolanib] (1000 nM)	71
C/C(=C\c1csc(C)n1)[C@@H]1C[C@@H]2O[C@]2(C)CCC[C@H](C)[C@H](O)[C@@H](C)C(=O)C(C)(C)[C@@H](O)CC(=O)N1 [Ixabepilone] (1000 nM)	96.2

normalised response value, target or system HDQ-P1, for O=[N+]([O-])c1ccc2c(c1)S(=O)(=O)C=C2 [Stattic] (500 nM) : 104

All values here come from the supplement of paper PMC4862054.
